Where do these numbers come from? They come from PubChem BioAssay AID1159580.

Each record here notes measured normalized growth.
- experiment: chemical genetic growth profiling, strain panel (AID 1159580);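 note: tested at 20 µM; growth read once vehicle control cultures reached saturation at 30 °C; 1 = growth at the plate median or of vehicle wells; lower values mean less growth of the strain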
- condition: S. cerevisiae deletion strains, growth OD, locus YKR026C, strain gcn3, active compounds read low
The campaign covered roughly 5,500 compounds. About 2,000 (36%) were called active. Another 18% or so got no clear call; they are omitted. Some of the results follow.
Lab note: write the figure by itself, no unit.

[in] Which normalized growth value belongs to COc1ccc(-c2cc(=O)c3c(O)c(OC)c(OC)c(OC)c3o2)cc1OC ?
[out] 0.995

[in] Which normalized growth value belongs to C/C=C/CC(C)C(O)C1C(=O)NC(CC)C(=O)N(C)CC(=O)N(C)C(CC(C)C)C(=O)NC(C(C)C)C(=O)N(C)C(CC(C)C)C(=O)NC(C)C(=O)NC(C)C(=O)N(C)C(CC(C)C)C(=O)N(C)C(CC(C)C)C(=O)N(C)C(C(C)C)C(=O)N1C (stereo unspecified) ?
[out] 1.01

Further cases:
[in] Which normalized growth value belongs to COc1ccc(-c2cc(=O)c3c(O)c(OC)c(O[C@H]4O[C@H](CO[C@@H]5O[C@@H](C)[C@H](O)[C@@H](O)[C@H]5O)[C@@H](O)[C@H](O)[C@H]4O)cc3o2)cc1 ?
[out] 0.992

[in] Which normalized growth value belongs to CC(=O)OCC(=O)[C@@]1(O)CCC2C3C[C@H](C)C4=CC(=O)C=CC4(C)C3[C@@H](O)CC21C (stereo partly specified) ?
[out] 1.01

[in] Which normalized growth value belongs to CC1(C)S[C@@H]2[C@H](NC(=O)C(C(=O)O)c3ccccc3)C(=O)N2[C@H]1C(=O)O (stereo partly specified) ?
[out] 0.985

[in] Which normalized growth value belongs to C[C@@H]1CC[C@@]23CCC4(C)[C@@](C=CC5[C@@]6(C)CCC(=O)C(C)(C)C6CC[C@]54C)(OC2=O)C3[C@H]1C (stereo partly specified) ?
[out] 1
